List of MIC tested on Enterobacter aerogenes F-1948.
Outcome Measure: MIC

| Compound Structure String | Target Of Assay | Val |
| --- | --- | --- |
| CO/N=C(\C(=O)N[C@@H]1C(=O)N2C(C(=O)O)=C[C@H](N=[N+]=[N-])C[C@H]12)c1csc(N)n1 | Enterobacter aerogenes F-1948 | 25 µg/mL |
| CO/N=C(\C(=O)N[C@@H]1C(=O)N2C(C(=O)O)=C[C@H](Sc3nnnn3-c3ccccc3)C[C@H]12)c1csc(N)n1 | Enterobacter aerogenes F-1948 | 50 µg/mL |
| CO/N=C(\C(=O)N[C@@H]1C(=O)N2C(C(=O)O)=C[C@H](Sc3nnnn3C)C[C@H]12)c1csc(N)n1 | Enterobacter aerogenes F-1948 | 50 µg/mL |
